test: Half life in human plasma at 2 uM by LC-MS/MS analysis; format: ADME, cell-free
Readout name: half-life at 2 µM

Tell me the measured half-life at 2 µM of `CC(=O)O.O=C(NO)c1ccc(CN2C(=O)[C@@H]3CCCN3Cc3ccccc32)cc1` , please.
> 4.82 h

* * *

Biological target: Polyamine deacetylase HDAC10 (Homo sapiens)
Sequence (Q969S8 whole entry): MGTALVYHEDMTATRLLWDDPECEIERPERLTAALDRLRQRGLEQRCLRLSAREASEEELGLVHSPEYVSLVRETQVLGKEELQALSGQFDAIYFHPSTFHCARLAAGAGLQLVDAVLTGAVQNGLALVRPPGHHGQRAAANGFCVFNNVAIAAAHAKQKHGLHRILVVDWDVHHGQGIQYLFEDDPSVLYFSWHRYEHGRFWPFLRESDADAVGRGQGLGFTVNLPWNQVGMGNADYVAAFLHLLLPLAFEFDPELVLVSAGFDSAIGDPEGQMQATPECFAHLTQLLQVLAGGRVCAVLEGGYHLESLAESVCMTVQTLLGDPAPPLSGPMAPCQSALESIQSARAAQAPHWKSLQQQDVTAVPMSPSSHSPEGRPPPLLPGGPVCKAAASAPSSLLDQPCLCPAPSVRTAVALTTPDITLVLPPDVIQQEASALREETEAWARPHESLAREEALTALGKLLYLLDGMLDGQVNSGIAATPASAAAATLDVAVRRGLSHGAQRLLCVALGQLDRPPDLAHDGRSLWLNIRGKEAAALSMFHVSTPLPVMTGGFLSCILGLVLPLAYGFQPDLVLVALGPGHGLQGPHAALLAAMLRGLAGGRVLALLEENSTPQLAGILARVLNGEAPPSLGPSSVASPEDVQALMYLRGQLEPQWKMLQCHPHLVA
Test: Inhibition of N-terminal FLAG-tagged recombinant human HDAC10 (2 to 631 residues) expressed in baculovirus sf9 insect cells expression system using Boc-Lys (Ac)-AMC as substrate incubated for 120 mins by fluorescence analysis
Readout name: IC50 (µM)
Numbers only, in µM.

[
  {
    "Smiles repr": "CC(=O)O.O=C(NO)c1ccc(CN2C(=O)[C@@H]3CCCN3Cc3ccccc32)cc1",
    "Value units": "µM",
    "IC50": 1.32
  }
]

Continue with the compound presented below.
Tell me the measured IC50 of `O=C(CCCCCN1C(=O)[C@@H]2CCCN2Cc2ccccc21)NO` , please.
0.961

* * *

target: Protein deacetylase HDAC6 (Homo sapiens); assay: Inhibition of recombinant human full length HDAC6 using Boc-Lys (Ac)-AMC as substrate incubated for 120 mins by fluorescence analysis
Sequence (Q9UBN7 whole entry): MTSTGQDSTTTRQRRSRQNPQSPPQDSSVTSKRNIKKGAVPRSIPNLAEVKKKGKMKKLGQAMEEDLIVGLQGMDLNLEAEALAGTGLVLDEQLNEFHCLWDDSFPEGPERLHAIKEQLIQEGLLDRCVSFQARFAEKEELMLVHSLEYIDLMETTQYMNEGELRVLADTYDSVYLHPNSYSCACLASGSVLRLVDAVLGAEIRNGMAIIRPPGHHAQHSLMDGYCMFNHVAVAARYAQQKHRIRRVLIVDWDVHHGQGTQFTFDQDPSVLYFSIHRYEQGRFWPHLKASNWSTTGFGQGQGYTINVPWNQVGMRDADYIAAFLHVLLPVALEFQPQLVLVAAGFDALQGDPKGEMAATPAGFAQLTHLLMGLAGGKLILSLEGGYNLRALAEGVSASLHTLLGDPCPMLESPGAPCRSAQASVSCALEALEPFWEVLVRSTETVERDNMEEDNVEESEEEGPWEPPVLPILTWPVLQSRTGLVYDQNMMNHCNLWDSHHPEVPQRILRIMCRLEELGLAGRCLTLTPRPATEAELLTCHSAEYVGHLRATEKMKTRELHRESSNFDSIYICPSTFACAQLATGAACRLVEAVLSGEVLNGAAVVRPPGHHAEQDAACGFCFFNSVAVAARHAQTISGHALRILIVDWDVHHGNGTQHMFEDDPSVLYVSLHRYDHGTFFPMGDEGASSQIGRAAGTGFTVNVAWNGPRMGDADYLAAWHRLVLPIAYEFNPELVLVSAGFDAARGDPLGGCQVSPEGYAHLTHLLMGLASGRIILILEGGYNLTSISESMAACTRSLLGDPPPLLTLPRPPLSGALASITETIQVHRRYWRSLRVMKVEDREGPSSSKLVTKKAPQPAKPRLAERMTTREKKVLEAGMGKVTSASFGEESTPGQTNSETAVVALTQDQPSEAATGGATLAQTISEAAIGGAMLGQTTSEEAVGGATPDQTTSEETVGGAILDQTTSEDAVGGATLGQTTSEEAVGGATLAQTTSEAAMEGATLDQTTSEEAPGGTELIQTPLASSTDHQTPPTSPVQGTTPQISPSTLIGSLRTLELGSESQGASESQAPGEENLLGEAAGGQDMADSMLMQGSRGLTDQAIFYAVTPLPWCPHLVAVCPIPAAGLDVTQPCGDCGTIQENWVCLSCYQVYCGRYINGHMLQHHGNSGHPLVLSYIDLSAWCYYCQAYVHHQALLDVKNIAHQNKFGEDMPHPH
Readout name: pIC50
Numbers only, as −log10 of the molar value.

Worked examples follow.
[
  {
    "Smiles repr": "COc1cc2c(cc1O)CN1C(=O)CC[C@H]1C(=O)N2Cc1ccc(C(=O)NO)cc1",
    "pIC50": 6.90
  },
  {
    "Smiles repr": "O=C(CCCCCCN1C(=O)[C@@H]2CCCN2Cc2ccccc21)NO",
    "pIC50": 6.53
  }
]

# return pIC50 for each item in the list
1. COc1cc2c(cc1O)CN1C(=O)CC[C@H]1C(=O)N2Cc1cccc(C(=O)NO)c1
2. COc1cc2c(cc1OCc1ccccc1)CN1C(=O)CC[C@H]1C(=O)N2Cc1cccc(C(=O)NO)c1
3. O=C(CCCCCCCN1C(=O)[C@@H]2CCCN2Cc2ccccc21)NO
4. COc1cc2c(cc1OCc1ccccc1)CN1C(=O)CC[C@H]1C(=O)N2CCCCCCC(=O)NO

1. 6.53
2. 6.74
3. 6.54
4. 7.92

# return pIC50 for each item in the list
1. O=C(Cc1ccc(CN2C(=O)[C@@H]3CCCN3Cc3ccccc32)cc1)NO
2. COc1cc2c(cc1OCc1ccccc1)CN1C(=O)CC[C@H]1C(=O)N2CCCCCC(=O)NO

6.54
7.76

Tell me the measured pIC50 of `COc1cc2c(cc1OCc1ccccc1)CN1C(=O)CC[C@H]1C(=O)N2Cc1ccccc1C(=O)NO` , please.
6.69
